What follows is a record of pIC50 for MERS-CoV 3CL^pro (Middle East respiratory syndrome-related coronavirus).
# pIC50 is unitless: minus log10 of the molar concentration; print number only

For orientation, consider the following solved cases.
INSERT INTO assay_data (compound_structure_string, property_measured, assay_result) VALUES
  ('C[C@H]1C[C@H](CN(NC(=O)[C@@H]2[C@H]3CCC[C@H]3CN2C(=O)[C@@H](NC(=O)[C@@H]2CC2(F)F)C(C)(C)C)C(=O)[C@H](F)Cl)C(=O)N1', 'pIC50', 5.94),
  ('CC1(C)C[C@@H](CN(NC(=O)[C@@H]2[C@H]3CCC[C@H]3CN2C(=O)[C@@H](NC(=O)[C@@H](F)Cl)C(C)(C)C)C(=O)[C@@H](F)Cl)C(=O)N1', 'pIC50', 5.73);

Query: # query: pIC50 | item "CC1(C)C[C@@H](CN(NC(=O)[C@@H]2[C@H]3CCC[C@H]3CN2C(=O)[C@@H](NC(=O)[C@@H]2CC2(F)F)C(C)(C)C)C(=O)[C@H](F)Cl)C(=O)N1" | system: MERS-CoV 3CL^pro (Middle East respiratory syndrome-related coronavirus)
Result: 6.29

Query: # query: pIC50 | item "CC1(C)C[C@@H](CN(NC(=O)[C@@H]2[C@@H]3[C@H](CN2C(=O)[C@@H](NC(=O)[C@@H]2CC2(F)F)C(C)(C)C)C3(C)C)C(=O)[C@@H](F)Cl)C(=O)N1" | system: MERS-CoV 3CL^pro (Middle East respiratory syndrome-related coronavirus)
Result: 5.68

Query: # query: pIC50 | item "C[C@@H]1C[C@H](CN(NC(=O)[C@@H]2[C@@H]3[C@H](CN2C(=O)[C@@H](NC(=O)[C@@H]2CC2(F)F)C(C)(C)C)C3(C)C)C(=O)[C@@H](F)Cl)C(=O)N1" | system: MERS-CoV 3CL^pro (Middle East respiratory syndrome-related coronavirus)
Result: 6.70
